species on record: Homo sapiens; experiment: Selectivity index, ratio of IC50 for human recombinant full-length estrogen receptor beta to IC50 for human recombinant full-length estrogen receptor alpha
measurementKind: Ratio IC50

COc1ccc2c(c1)OCCC(c1ccc(O)cc1)=C2c1ccc(/C=C/C(=O)O)cc1    5.3

(a) CN1CCN(C(=O)/C=C/c2ccc(C3=C(c4ccc(O)cc4)CCOc4cc(F)ccc43)cc2)CC1
(b) O=C(O)COc1ccc(C2=C(c3ccc(O)cc3)CCOc3cc(F)ccc32)cc1
(c) O=C(/C=C/c1ccc(C2=C(c3ccc(O)cc3)CCOc3cc(F)ccc32)cc1)N1CCN(Cc2ccccc2)CC1
(d) O=C(O)/C=C/c1ccc(C2=C(c3ccc(O)cc3)CCOc3ccccc32)cc1
Incoming: # rank by Ratio IC50, ascending (min first) Please reply with the labels ordered as requested. Many thanks.
Outgoing: b, c, d, a

----------
biological target: Estrogen receptor (Homo sapiens, UniProt Q92731+P03372); experiment: Antagonist activity at estrogen receptor alpha/beta in human Ishikawa cells after 72 hrs by alkaline phosphatase assay; assay type: cell-based
measurementKind: IC50 (µM)

CCN(CC)C(=O)/C=C/c1ccc(C2=C(c3ccc(O)cc3)CCOc3cc(F)ccc32)cc1    0.0098

(I) O=C(O)/C=C/c1ccc(C2=C(c3ccc(O)cc3)CCOc3ccccc32)cc1
(II) CC(=O)/C=C/c1ccc(C2=C(c3ccc(O)cc3)CCOc3cc(F)ccc32)cc1
Incoming: Input pair: I , II . Output: entry with lower IC50. Returns: label corresponding to the selected item.
Outgoing: II
(II: 0.45 µM, I: 0.67 µM)

(I) O=C(O)/C=C/c1ccc(C2=C(c3ccc(O)cc3)CCSc3cc(F)ccc32)cc1
(II) O=C(O)/C=C/c1ccc(C2=C(c3ccc(O)cc3)CCOc3cc(F)ccc32)cc1
Incoming: Higher IC50: I or II ? Returns: label corresponding to the selected item.
Outgoing: II
